Record set: pIC50 | Cytochrome P450 2B6 (Homo sapiens) | literature, multiple sources.
pIC50: −log10 of the molar value.

Report pIC50 for each item below.
1. C=CC(=O)N(C)CCOc1c(N)ncnc1-c1ccc(CN2CCN(CC(C)C)CC2=O)c(C)c1
2. Cl.Cl.Cl.NCc1ccc(-c2cnccc2-c2cccnc2)o1

1: < 5.00; 2: 5.11

May I ask what pIC50 has been recorded for COC(=O)N1C[C@@H](C)N(c2ncc3[nH]nc(-c4ccc(N5CCN(C)CC5)cc4)c3n2)[C@@H](C)C1 ?
< 4.60
